This listing pairs compounds with measured IC50.
molecular target: angiotensin II AT1 receptor; test: Assay A: Angiotensin II binding activity, rat uterine membrane preparation, 125I-AII displacement
Only the number, expressed in nM, is required.

# COMPOUND, OBSERVED MEASUREMENT
records = [
    ("CCCCc1cn(CCCC)c(=O)n1Cc1ccc(-c2ncccc2-c2nnn[nH]2)cc1 [Compound 235]", 34),
    ("CCCCc1cn(C2CCCC2)c(=O)n1Cc1ccc(-c2ccccc2-c2nnn[nH]2)nc1 [Compound 218]", 9),
    ("CCCCCCCCc1nc(CCCC)nn1Cc1ccc(-c2ccccc2-c2nnn[nH]2)cc1 [Compound 39]", 10),
    ("CCCCc1nn(C(CC(=O)OCC)C(=O)c2ccccc2)c(=O)n1Cc1ccc(-c2ccccc2-c2nn[nH]n2)cc1 (centres unmarked) [Compound 112]", 2000),
    ("CCCCc1nc(C2CCCCC2)n(Cc2ccc(-c3ccccc3-c3nnn[nH]3)cc2)n1 [Compound 76]", 5400),
]

Q: Fill blank: measured IC50 of the compound CCCCc1cn(CCC2CC2)c(=O)n1Cc1ccc(-c2ccccc2-c2nnn[nH]2)nc1 [Compound 217] is ____.
Ans: 9.4

Q: Fill blank: measured IC50 of the compound CCCCc1ncn(Cc2ccc(-c3ccccc3-c3nnn[nH]3)cc2)n1 [Compound 65] is ____.
Ans: 23

Q: Fill blank: measured IC50 of the compound CCCn1nc(C(C)(F)F)nc1Cc1ccc(-c2ccccc2-c2nnn[nH]2)nc1 [Compound 176] is ____.
Ans: 9.8

Q: Fill blank: measured IC50 of the compound CCCCc1nc2c(Cl)nnc(Cl)c2n1Cc1ccc(-c2ccccc2-c2nnn[nH]2)cc1 [Compound 121] is ____.
Ans: 46

Q: Fill blank: measured IC50 of the compound CCCCc1nn(C/C=C/c2ccccc2)c(=O)n1Cc1ccc(-c2ccccc2-c2nn[nH]n2)cc1 [Compound 116] is ____.
Ans: 230

Q: Fill blank: measured IC50 of the compound CCCCc1nc(CC2CCCCC2)n(Cc2ccc(-c3ccccc3-c3nnn[nH]3)cc2)n1 [Compound 84] is ____.
Ans: 16

Q: Fill blank: measured IC50 of the compound CCCCc1nc(Cl)n(Cc2ccc(-c3ccccc3-c3nnn[nH]3)cc2)n1 [Compound 20] is ____.
Ans: 78000

Q: Fill blank: measured IC50 of the compound CCCCc1nn(CC2CC2)c(=O)n1Cc1ccc(-c2ccccc2-c2nn[nH]n2)cc1 [Compound 115] is ____.
Ans: 11

Q: Fill blank: measured IC50 of the compound CCCCc1nc(CC(OCC)OCC)nn1Cc1ccc(-c2ccccc2-c2nnn[nH]2)cc1 [Compound 49] is ____.
Ans: 120
